System: RRR
TEST DETAILS: Dependence of RRR cleavage activity on Rev (FRET ribozyme reaction)
Format: biochemical
TEST CONTEXT: read-out: K inh (inhibition of RRR at the half maximal concentration of Rev); Rev peptide
pIC50: −log10 of the molar value.

SUBSTANCE	pIC50
Rev peptide: Rev peptide, which includes aminoacids 34 to 50 of the Rev protein (TRQARRNRRRRWRERQR; UniProt P04618 34-50, looked up, fragment)	6.33

* * *

MEASUREMENT TARGET: Rev protein (Human immunodeficiency virus type 1 group M subtype B)
Construct: the intact Rev protein and by the Rev peptide
Sequence (P04618 whole entry, looked up): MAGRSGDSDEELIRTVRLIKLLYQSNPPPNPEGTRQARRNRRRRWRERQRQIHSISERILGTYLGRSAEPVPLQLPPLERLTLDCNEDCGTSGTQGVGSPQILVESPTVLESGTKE
TEST DETAILS: Surface plasmon resonance, Rev protein
Format: binding, HIV
TEST CONTEXT: 100 μM antibiotic, 25° C.
MEASURED ENDPOINT: binding to surface derivatized with Rev protein

COMPOUND	RESULT
O=C1C=C2C(=CCOC2O)O1 (centres unmarked)	exhibited binding
CO[C@@H]1[C@@H](OC(N)=O)[C@@H](O)[C@H](Oc2ccc3c(O)c(NC(=O)c4ccc(O)c(CC=C(C)C)c4)c(=O)oc3c2C)OC1(C)C	exhibited binding
